assay: reduced mouse 2C T cell binding to pMHC/ICAM-1 vesicles – MLPCN validation set, flow cytometry, LFA-1/ICAM-1 modulator project, pilot screen (AID 2523); conditions: 2C mouse CD8+ T cells, at 7 µM;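 also: mean PE anti-B7-1 fluorescence of CD8+ cells relative to row control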
Calls of active or inactive are those of the source.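 The calls were made as follows: active = response below a set limit, under 55% cells CD8-positive and vesicle-bound, and CD8 cells' 90th-percentile brightness under 279; inactive = the rest.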
Outcome (select one): TRUE (active), FALSE (inactive)

[[record]]
molecule = "OCCC1CN(Cc2ccccc2-c2ccco2)CCN1C1CCCC1 (configuration not stated)"
assignedcategory = "FALSE"

[[record]]
molecule = "CSCCC(NC(=O)OC(C)(C)C)C(=O)Oc1ccc2c(=O)c(-c3ccc4c(c3)OCCO4)coc2c1 (configuration not stated)"
assignedcategory = "FALSE"

[[record]]
molecule = "Nc1ccc(S(N)(=O)=O)cc1N"
assignedcategory = "FALSE"

[[record]]
molecule = "CC(C)(Oc1ccc(CCNC(=O)c2ccc(Cl)cc2)cc1)C(=O)O"
assignedcategory = "FALSE"

[[record]]
molecule = "CN1CCN2c3ccccc3Cc3ccccc3C2C1 (configuration not stated)"
assignedcategory = "FALSE"

[[record]]
molecule = "Cc1nc2ccccc2n1CC(O)Cn1c2ccccc2c2ccccc21 (configuration not stated)"
assignedcategory = "FALSE"

[[record]]
molecule = "CSCCC(NC(C)=O)C(=O)Oc1ccc2c3c(c(=O)oc2c1)CCCC3 (configuration not stated)"
assignedcategory = "FALSE"

[[record]]
molecule = "CCCCCCCCNC(C)C(O)c1ccc(SC(C)C)cc1 (configuration not stated)"
assignedcategory = "TRUE"

[[record]]
molecule = "COc1ccc(C(=O)Nc2ncc3c(n2)CC(C)CC3=O)cc1 (configuration not stated)"
assignedcategory = "FALSE"

[[record]]
molecule = "Brc1c(NC2=NCCN2)ccc2nccnc12"
assignedcategory = "FALSE"


// query Returns: the outcome recorded for CC(C)N(C(=O)Cc1ccccc1[N+](=O)[O-])C(C)C in this assay.
// result FALSE

// query Returns: the outcome recorded for COc1cc2c(cc1OC)C(C)=NC1(CCCCC1)C2 in this assay.
// result FALSE
